- Target Of Assay: 5'-nucleotidase (Rattus norvegicus) (UniProt P21588)
- Sequence (P21588 whole entry): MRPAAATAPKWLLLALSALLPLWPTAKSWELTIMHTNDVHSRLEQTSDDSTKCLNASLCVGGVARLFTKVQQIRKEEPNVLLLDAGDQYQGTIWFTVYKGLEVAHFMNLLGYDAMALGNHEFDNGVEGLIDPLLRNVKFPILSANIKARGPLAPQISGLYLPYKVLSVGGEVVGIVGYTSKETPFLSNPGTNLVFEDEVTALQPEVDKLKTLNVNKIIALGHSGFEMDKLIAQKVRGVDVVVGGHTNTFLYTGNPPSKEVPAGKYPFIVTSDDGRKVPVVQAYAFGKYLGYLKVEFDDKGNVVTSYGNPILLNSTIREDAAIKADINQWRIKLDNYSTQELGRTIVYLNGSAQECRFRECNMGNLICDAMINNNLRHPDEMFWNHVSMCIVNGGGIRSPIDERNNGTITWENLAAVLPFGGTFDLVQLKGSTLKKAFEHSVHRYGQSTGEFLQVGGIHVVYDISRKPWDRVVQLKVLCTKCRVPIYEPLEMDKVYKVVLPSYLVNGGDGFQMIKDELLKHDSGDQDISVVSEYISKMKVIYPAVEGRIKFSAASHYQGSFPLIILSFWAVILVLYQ
- Experimental Details: Activity at rat recombinant ecto-5'-nucleotidase expressed in baculovirus-infected insect Sf9 cells co-transfected with soluble glutathione-S-transferase assessed as compound dephosphorylation by capillary electrophoresis relative to AMP
- Design: concentration or dose not given beside the values
Threshold 30%. Activity below it: true. Activity at it or above: false.

> print(dat)
                                   compound                           target.of.assay  class.assignment
1  C=CCSc1nc(N)c2ncn([C@@H]3O[C@H](COP(=O)(O)O)[C@@H](O)[C@H]3O)c2n1  5'-nucleotidase (Rattus norvegicus) (UniProt P21588)              true
2  Nc1nc(SCCC2CCCCC2)nc2c1ncn2[C@@H]1O[C@H](COP(=O)(O)O)[C@@H](O)[C@H]1O  5'-nucleotidase (Rattus norvegicus) (UniProt P21588)             false
3  Nc1nc(SCCC2COCCO2)nc2c1ncn2[C@@H]1O[C@H](COP(=O)(O)O)[C@@H](O)[C@H]1O (stereo partly drawn)  5'-nucleotidase (Rattus norvegicus) (UniProt P21588)             false
4  Nc1nc(SC2CCCCC2)nc2c1ncn2[C@@H]1O[C@H](COP(=O)(O)O)[C@@H](O)[C@H]1O  5'-nucleotidase (Rattus norvegicus) (UniProt P21588)              true
5  CCCSc1nc(N)c2ncn([C@@H]3O[C@H](COP(=O)(O)O)[C@@H](O)[C@H]3O)c2n1  5'-nucleotidase (Rattus norvegicus) (UniProt P21588)             false
6  C#CCSc1nc(N)c2ncn([C@@H]3O[C@H](COP(=O)(O)O)[C@@H](O)[C@H]3O)c2n1  5'-nucleotidase (Rattus norvegicus) (UniProt P21588)              true
7  CCCCCCSc1nc(N)c2ncn([C@@H]3O[C@H](COP(=O)(O)O)[C@@H](O)[C@H]3O)c2n1  5'-nucleotidase (Rattus norvegicus) (UniProt P21588)             false
8  Nc1nc(SCC2CCCCC2)nc2c1ncn2[C@@H]1O[C@H](COP(=O)(O)O)[C@@H](O)[C@H]1O  5'-nucleotidase (Rattus norvegicus) (UniProt P21588)             false

Data credit: ChEMBL document CHEMBL1155272
